- reported.conditions: in toluene, 278.15 K
parameter.measured: solubility (mole fraction)
// print number alone

-- ask Answer with reported solubility (mole fraction) of "CC(=O)Oc1ccccc1C(=O)Nc1ncc([N+](=O)[O-])s1"
-- reply 9.9e-05

---

- reported.conditions: in NMP, 313.15 K
parameter.measured: solubility (mole fraction)

-- ask Dear colleague, please send me the reported solubility (mole fraction) for "CC(=O)Oc1ccccc1C(=O)Nc1ncc([N+](=O)[O-])s1" when you can.
-- reply 0.113

---

- reported.conditions: in n-butanol, 313.15 K
parameter.measured: solubility (mole fraction)

-- ask Provide only the value of recorded solubility (mole fraction) for "CC(=O)Oc1ccccc1C(=O)Nc1ncc([N+](=O)[O-])s1"
-- reply 0.000617

---

- reported.conditions: in acetonitrile, 283.15 K
parameter.measured: solubility (mole fraction)
Answer field: number only, no words.

-- ask Give solubility (mole fraction) for "CC(=O)Oc1ccccc1C(=O)Nc1ncc([N+](=O)[O-])s1"
-- reply 0.00103

---

- reported.conditions: in DMF, 278.15 K
parameter.measured: solubility (mole fraction)
// print number alone

-- ask Could you please provide reported solubility (mole fraction) for "CC(=O)Oc1ccccc1C(=O)Nc1ncc([N+](=O)[O-])s1" ? Thanks!
-- reply 0.0672

---

- reported.conditions: in 2-butanone, 273.15 K
parameter.measured: solubility (mole fraction)
Give the figure by itself; no unit, no explanation.

-- ask Provide only the value of recorded solubility (mole fraction) for "CC(=O)Oc1ccccc1C(=O)Nc1ncc([N+](=O)[O-])s1"
-- reply 0.00334
